Target: Zinc finger protein mex-5 (Caenorhabditis elegans, UniProt Q9XUB2)
Sequence (Q9XUB2 whole entry): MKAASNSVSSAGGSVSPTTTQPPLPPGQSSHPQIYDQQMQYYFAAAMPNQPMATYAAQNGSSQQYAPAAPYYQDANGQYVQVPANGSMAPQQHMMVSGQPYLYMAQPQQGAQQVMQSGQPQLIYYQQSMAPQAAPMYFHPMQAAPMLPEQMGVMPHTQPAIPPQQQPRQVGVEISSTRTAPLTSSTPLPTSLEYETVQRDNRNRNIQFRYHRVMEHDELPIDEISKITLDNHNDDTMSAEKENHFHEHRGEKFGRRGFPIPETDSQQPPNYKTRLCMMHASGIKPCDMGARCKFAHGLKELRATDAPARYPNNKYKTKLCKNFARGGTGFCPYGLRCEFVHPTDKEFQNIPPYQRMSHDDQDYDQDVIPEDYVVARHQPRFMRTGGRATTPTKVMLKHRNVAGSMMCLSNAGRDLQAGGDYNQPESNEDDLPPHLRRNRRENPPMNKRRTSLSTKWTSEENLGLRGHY
Experiment: MEX-5/TCR-2 RNA interaction inhibitors, dose response, biochemical, C. elegans, fluorescence polarization (AID 1960)
The source made the active and inactive calls.
measurement.kind: EC50

Consider the worked cases shown below.
1) CCOc1ccc(N/C(=C(/C(Cl)=C(Cl)Cl)[N+](=O)[O-])n2cncn2)cc1 = 45.4 µM (active)
2) CCCCC1=CC2=CC(=O)C(C)(OC(=O)CCC(=O)OC)C(=O)C2=CO1 (stereo unspecified) = 26.6 µM (active)
3) CC1=C(C#N)C(=O)OC(C)(C)C1 = 10.1 µM (active)
4) O=C(CN1C(=O)C2CC=C(Cl)CC2C1=O)NCc1ccccc1 (stereo unspecified) = 24.7 µM (active)
5) O=C(/N=C1\SC2CS(=O)(=O)CC2N1c1ccccc1)C1CC1 (stereo unspecified) = > 300 µM (inconclusive)
6) C/C(=N\Nc1ccc([N+](=O)[O-])cc1[N+](=O)[O-])c1cc2c(ccc3ccccc32)oc1=O = > 300 µM (not active)
7) CCC1(c2ccccc2)NC(=O)N(CC(=O)NCc2ccc(F)cc2)C1=O (stereo unspecified) = > 300 µM (not active)
8) CCCN1C(=O)/C(=C/c2ccc(C)o2)S/C1=N/c1ccc(OC)cc1 = 103 µM (inconclusive)

So, NC(=O)CC(NC(=O)Cc1ccc(Cl)cc1)c1ccc(NC2CCCCCC2)c([N+](=O)[O-])c1 (stereo unspecified) ? Its EC50 was > 300 µM (not active)

So, `O=C(c1ccco1)N1CCN(c2ncnc3c(-c4ccc(Cl)cc4)nsc23)CC1` ? Its EC50 was > 300 µM (not active)

So, `O=C(/C=C/N1CCOCC1)c1ccc(-c2ccccc2)cc1` ? Its EC50 was > 300 µM (not active)

---

Molecular target: UniProt P49327
Sequence (P49327 whole entry, the tested form may be a part): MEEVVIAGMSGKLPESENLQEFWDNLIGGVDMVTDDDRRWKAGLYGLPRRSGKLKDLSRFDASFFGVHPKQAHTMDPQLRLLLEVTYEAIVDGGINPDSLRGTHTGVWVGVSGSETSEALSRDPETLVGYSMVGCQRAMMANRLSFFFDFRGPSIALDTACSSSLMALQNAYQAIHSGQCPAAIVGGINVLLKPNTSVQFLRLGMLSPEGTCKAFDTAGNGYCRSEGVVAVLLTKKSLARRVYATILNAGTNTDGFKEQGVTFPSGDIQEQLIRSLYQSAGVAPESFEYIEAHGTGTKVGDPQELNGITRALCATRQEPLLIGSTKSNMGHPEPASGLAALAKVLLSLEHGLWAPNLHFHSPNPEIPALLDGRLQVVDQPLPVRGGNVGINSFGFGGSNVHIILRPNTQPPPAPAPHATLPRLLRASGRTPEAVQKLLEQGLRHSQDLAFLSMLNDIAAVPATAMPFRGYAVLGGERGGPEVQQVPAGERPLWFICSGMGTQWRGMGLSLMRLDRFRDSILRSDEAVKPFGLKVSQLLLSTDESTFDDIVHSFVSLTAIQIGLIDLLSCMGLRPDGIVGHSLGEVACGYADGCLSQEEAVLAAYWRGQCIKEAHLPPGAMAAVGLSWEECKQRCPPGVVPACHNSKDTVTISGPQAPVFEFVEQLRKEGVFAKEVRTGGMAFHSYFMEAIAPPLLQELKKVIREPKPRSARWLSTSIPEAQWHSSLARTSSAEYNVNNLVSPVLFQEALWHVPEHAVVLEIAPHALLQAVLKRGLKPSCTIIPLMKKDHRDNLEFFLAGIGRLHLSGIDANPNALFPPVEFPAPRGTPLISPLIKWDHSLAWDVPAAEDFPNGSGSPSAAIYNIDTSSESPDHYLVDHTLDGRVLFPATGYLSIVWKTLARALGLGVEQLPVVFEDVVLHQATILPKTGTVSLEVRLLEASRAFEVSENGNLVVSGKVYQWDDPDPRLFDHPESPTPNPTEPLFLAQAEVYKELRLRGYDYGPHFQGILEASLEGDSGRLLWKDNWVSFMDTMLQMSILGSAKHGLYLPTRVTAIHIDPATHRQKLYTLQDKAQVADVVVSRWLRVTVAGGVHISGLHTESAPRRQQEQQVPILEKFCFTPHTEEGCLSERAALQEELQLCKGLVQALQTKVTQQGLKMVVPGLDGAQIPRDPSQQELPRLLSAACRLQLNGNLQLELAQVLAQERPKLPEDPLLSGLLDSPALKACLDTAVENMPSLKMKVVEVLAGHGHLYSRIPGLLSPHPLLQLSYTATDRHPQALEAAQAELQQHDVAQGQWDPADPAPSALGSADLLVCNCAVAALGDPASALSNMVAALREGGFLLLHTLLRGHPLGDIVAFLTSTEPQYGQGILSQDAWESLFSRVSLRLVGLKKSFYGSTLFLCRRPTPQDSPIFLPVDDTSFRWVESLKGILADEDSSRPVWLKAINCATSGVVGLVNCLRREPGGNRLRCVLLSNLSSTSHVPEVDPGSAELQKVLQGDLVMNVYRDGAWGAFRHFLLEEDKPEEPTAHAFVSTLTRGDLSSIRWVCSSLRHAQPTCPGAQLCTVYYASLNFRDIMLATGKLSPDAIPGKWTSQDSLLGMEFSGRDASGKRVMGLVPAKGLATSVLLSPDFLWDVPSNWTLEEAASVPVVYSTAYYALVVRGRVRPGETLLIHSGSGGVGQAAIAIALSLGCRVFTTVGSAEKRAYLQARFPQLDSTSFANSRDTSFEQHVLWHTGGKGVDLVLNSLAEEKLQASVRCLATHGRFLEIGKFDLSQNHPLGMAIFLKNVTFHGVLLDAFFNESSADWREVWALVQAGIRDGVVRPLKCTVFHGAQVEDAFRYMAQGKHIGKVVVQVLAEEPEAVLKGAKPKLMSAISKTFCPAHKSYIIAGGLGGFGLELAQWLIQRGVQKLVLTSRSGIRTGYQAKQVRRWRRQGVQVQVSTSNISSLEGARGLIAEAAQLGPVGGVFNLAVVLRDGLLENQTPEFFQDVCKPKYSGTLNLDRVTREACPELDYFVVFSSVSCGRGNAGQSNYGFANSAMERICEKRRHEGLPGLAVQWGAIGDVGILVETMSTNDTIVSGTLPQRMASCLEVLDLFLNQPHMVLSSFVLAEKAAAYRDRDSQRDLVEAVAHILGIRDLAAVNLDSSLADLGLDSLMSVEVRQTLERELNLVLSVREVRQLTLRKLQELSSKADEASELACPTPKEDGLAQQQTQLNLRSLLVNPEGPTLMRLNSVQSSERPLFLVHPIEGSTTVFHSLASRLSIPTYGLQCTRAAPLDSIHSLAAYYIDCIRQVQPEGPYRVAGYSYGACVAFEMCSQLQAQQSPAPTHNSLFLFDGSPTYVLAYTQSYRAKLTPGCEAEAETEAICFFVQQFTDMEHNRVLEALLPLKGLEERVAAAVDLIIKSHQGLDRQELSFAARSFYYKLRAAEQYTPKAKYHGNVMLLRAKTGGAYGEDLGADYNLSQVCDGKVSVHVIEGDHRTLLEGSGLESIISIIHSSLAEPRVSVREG
Test: FAS thioesterase domain inhibitors, dose response, biochemical, kinetic fluorescence intensity (AID 624326);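 note: rate of fluorescence rise from hydrolysis of a fluorogenic O-methyl fluorescein ester substrate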
Assay type: functional
Active and inactive are the calls of the source.
Hello, when you answer, please use one of the following outcomes: 1 for active, -1 for inactive

1. N#C/C(=C\c1c(N2CCC(C(N)=O)CC2)nc2ccccn2c1=O)S(=O)(=O)c1ccc(Cl)cc1 = 1
2. C=CCn1c(=S)[nH]c2cc(C(=O)N3CCN(c4ccccc4OC)CC3)ccc2c1=O = -1

Kindly provide the recorded test outcome for the following molecule: `CCCC12CN(C(=O)c3ccc([N+](=O)[O-])cc3)CC(C)(CN(C(=O)c3ccc([N+](=O)[O-])cc3)C1)C2=O`
1

Kindly provide the recorded test outcome for the following molecule: `O=C(CN1C(=O)NC2(CCCCCC2)C1=O)Nc1ccc(Cl)c([N+](=O)[O-])c1`
1

Kindly provide the recorded test outcome for the following molecule: COc1ccc([N+](=O)[O-])cc1NC(=O)C(C)NNC(=O)c1cccc([N+](=O)[O-])c1 (stereo not drawn)
1

Kindly provide the recorded test outcome for the following molecule: `CCS(=O)(=O)c1ccc(-c2csc(-c3ccccc3)n2)c(Cl)c1Cl`
1

Kindly provide the recorded test outcome for the following molecule: `COc1ccc(OC)c(S(=O)(=O)ON2C(=O)c3ccccc3C2=O)c1`
1

Kindly provide the recorded test outcome for the following molecule: `COc1ccccc1/C=C(\NC(=O)c1ccc(OC)c(OC)c1)C(=O)Nc1cccc([N+](=O)[O-])c1`
1

---

Test: inhibitors of intracellular T. cruzi replication, confirmation, NIH3T3 host cells, beta-gal luminescence (AID 2044);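 note: intracellular parasites grown in NIH/3T3 mouse fibroblasts as host cells; luminescent beta-galactosidase reporter signal from transgenic T. cruzi replicating inside host cells; inhibitors lower the luminescence signal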
Assay type: functional, cell-based
The source made the active and inactive calls.
EC50 values, listed per item

Consider the worked cases shown below.
1) O=C(C1CCCN(Cc2ccc(Cl)cc2)C1)N1CCCCC1 (stereo not drawn) = < 0.1 µM (active)
2) CCOC(=O)C1(Cc2ccccc2C(F)(F)F)CCN(C(C)CCn2cccn2)CC1 (stereo not drawn) = 0.944 µM (active)
3) O=C(NCC(c1cccnc1)N1CCN(c2ccccc2F)CC1)OCc1ccccc1 (stereo not drawn) = < 0.1 µM (active)
4) Clc1cc(/C=N\NC2=NCCN2)cc(Cl)n1 = 0.663 µM (active)
5) CCOC(=O)C1(CCOc2ccccc2)CCN(Cc2cccc3c2OCO3)CC1 = 2.1 µM (active)

So, Cc1cccc2nc(CNC(=O)CC3C(=O)NCCN3Cc3cccc(F)c3)cn12 (stereo not drawn) ? Its EC50 was > 60 µM (not active)

So, O=C(c1ccc2c3c(cccc13)CC2)C1CCCN(Cc2cccnc2)C1 (stereo not drawn) ? Its EC50 was 0.709 µM (active)

So, `c1coc(CNc2c3c(nc4ccccc24)CCC3)c1` ? Its EC50 was 2.41 µM (active)

---

Biological target: Methionyl-tRNA synthetase, putative (Trypanosoma brucei brucei, UniProt Q38C91);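 note: Read-out by fluorescence polarization, run as a confirmatory high-throughput counterscreen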;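 note: potency of MetRS inhibitors measured by reduced AMP formation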
Sequence (Q38C91 whole entry): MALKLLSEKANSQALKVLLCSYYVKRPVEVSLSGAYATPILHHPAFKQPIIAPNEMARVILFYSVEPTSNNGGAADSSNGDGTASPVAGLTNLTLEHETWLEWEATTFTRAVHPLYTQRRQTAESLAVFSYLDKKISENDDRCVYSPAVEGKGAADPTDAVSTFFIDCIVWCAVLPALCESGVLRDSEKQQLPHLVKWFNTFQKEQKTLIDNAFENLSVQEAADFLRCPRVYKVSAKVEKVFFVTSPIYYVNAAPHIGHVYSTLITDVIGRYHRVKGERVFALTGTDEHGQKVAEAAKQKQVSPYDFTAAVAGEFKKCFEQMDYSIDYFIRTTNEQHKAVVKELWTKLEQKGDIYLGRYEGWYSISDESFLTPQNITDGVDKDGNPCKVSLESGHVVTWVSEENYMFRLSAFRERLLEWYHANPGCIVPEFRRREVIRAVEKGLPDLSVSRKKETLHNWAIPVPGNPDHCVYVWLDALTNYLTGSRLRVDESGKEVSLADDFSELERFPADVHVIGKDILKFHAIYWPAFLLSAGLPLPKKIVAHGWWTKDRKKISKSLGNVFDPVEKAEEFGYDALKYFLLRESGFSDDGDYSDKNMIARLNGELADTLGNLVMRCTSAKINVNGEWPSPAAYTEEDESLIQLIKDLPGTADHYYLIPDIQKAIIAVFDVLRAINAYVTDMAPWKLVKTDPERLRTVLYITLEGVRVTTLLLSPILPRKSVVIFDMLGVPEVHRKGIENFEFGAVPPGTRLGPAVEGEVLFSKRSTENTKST
Assay type: functional, Trypanosoma brucei brucei strain 927/4 GUTat10.1
Activity calls are given as the source filed them.
Hello, when you answer, please use one of the following outcomes: 1 = active, -1 = inactive

1. CN(C)S(=O)(=O)c1cccc(NC(=O)c2ccc(-n3cncn3)c([N+](=O)[O-])c2)c1 = 1
2. O=C(OC(C(=O)c1c[nH]c2ccccc12)c1ccccc1)c1cnccn1 (stereo not given) = -1
3. COc1ccc2[nH]c3nc(SCC(=O)Nc4ccc5c(c4)OCO5)nnc3c2c1 = 1
4. O=C(Cn1cnc2ccccc21)Nc1cccc([N+](=O)[O-])c1 = 1

// switching to the query molecule
Kindly provide the recorded test outcome for the following molecule: `O=C(NCCCCc1ccccc1)Nc1ccc(F)cc1`
-1

---

AC50 values, listed per item
Target: Microphthalmia-associated transcription factor (Homo sapiens, UniProt O75030)
Assay: TRPM1 promoter luciferase signal decrease, dose response, MITF inhibitor project, cell-based, SK-MEL-5, cherry-picked, set 3 (AID 493073);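 note: SK-MEL-5 melanoma cells with luciferase driven by the MITF target TRPM1 promoter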
Format: functional
Calls of active or inactive are those of the source.

So, O=S1(=O)CCC(NC(=S)SCc2ccccc2Br)C1 (stereo unspecified) ? Its AC50 was 25.6 µM (active)

So, `CCn1c(/C=C/N(C)c2ccccc2)[n+](CC)c2cc(Cl)ccc21` ? Its AC50 was 6.86 µM (active)

So, `Oc1ccc(CNc2ccccc2F)c2cccnc12` ? Its AC50 was 15.1 µM (active)

---

CC50 values, listed per item
Assay: microbe, parasite or virus in culture
Assay type: functional
Settings: Mycobacterium tuberculosis
The source made the active and inactive calls.

1. Cc1nn(-c2ccccc2)c(C)c1/C=N/NC(=O)c1cc(-c2cccc3ccccc23)[nH]n1 = 30.5 µM (active)

So, `O=C(N/N=C/c1ccc(Br)s1)c1cccs1` ? Its CC50 was 33.3 µM (active)

So, `CCCCCNc1nc(N2CCCC2)c2c(c1C#N)CCN(C)C2` ? Its CC50 was > 40 µM (active)

So, `Cc1sc2ncnc(N3CCC(C(=O)N(CC(C)C)c4nc5ccccc5s4)CC3)c2c1C` ? Its CC50 was > 40 µM (active)

So, `CN1CC=C(/C=C/c2ccc(-c3ccccc3)cc2)CC1` ? Its CC50 was 8.12 µM (active)

---

Test: P. falciparum Dd2 growth inhibitors, dose response, SYBR Green, dry powder samples (AID 1159566);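 note: potency for growth inhibition with lower SYBR green DNA signal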
Type: functional, cell-based
Activity calls are given as the source filed them.
AC50 values, listed per item

Consider the worked cases shown below.
1) C[C@@H]1CN([C@H](C)CO)C(=O)c2ccccc2-c2ccccc2CO[C@H]1CN(C)C(=O)Nc1cccc(Cl)c1Cl = 560 nM (active)
2) CCCNC(=O)N1[C@H](C#N)[C@H](c2ccc(C#Cc3ccc(F)cc3)cc2)[C@@H]1CO = 123 nM (active)
3) CCCNC(=O)N1[C@H](C#N)[C@H](c2ccc(-c3cccc(OC)c3)cc2)[C@@H]1CO = 168 nM (active)

So, `COc1ccc(NC(=O)N2CCCCN3[C@H](CO)[C@H](c4ccc(C#CCC(C)C)cc4)[C@@H]3C2)cc1` ? Its AC50 was 418 nM (active)

---

Target: UniProt Q06710
Sequence (Q06710 whole entry): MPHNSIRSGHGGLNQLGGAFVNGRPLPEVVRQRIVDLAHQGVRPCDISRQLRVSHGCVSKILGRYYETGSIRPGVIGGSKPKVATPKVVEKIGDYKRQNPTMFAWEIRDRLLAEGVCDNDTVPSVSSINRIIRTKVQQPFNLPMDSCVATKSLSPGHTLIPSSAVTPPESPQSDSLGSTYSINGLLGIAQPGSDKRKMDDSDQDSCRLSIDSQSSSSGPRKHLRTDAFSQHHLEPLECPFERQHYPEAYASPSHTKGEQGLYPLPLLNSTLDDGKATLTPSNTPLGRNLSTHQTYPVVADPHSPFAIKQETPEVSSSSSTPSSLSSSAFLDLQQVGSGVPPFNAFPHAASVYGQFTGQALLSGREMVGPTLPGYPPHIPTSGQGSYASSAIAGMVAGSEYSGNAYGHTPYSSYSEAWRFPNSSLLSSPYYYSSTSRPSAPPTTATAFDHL
Experiment: inhibitors of PAX8-driven TPO luciferase reporter, dose response, RMG-I cells, cherry-pick (AID 687027);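 note: luciferase reporter driven by Pax8 target thyroperoxidase promoter measured by SteadyGlo luminescence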
Format: functional, cell-based
The source made the active and inactive calls.
measurement.kind: AC50

Consider the worked cases shown below.
1) C[C@@H]1CN([C@H](C)CO)C(=O)c2cc(NS(=O)(=O)c3ccccc3)ccc2O[C@@H](C)CCCCO[C@@H]1CN(C)Cc1ccc(C(F)(F)F)cc1 = 5.74 µM (active)
2) C[C@@H]1CN([C@@H](C)CO)C(=O)Cc2cc(NC(=O)NC3CCCCC3)ccc2O[C@H]1CN(C)Cc1ccc(-c2ccccc2)cc1 = 8.66 µM (active)

So, `Cc1cc(-n2c(SCC(=O)NCCC3=CCCCC3)nc3nnc(C)c-3c2N)ccc1Cl` ? Its AC50 was 7.33 µM (active)

---

Target: Estrogen receptor (Homo sapiens);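 note: potency for inhibiting coactivator peptide recruitment to the receptor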
Sequence (P03372 whole entry): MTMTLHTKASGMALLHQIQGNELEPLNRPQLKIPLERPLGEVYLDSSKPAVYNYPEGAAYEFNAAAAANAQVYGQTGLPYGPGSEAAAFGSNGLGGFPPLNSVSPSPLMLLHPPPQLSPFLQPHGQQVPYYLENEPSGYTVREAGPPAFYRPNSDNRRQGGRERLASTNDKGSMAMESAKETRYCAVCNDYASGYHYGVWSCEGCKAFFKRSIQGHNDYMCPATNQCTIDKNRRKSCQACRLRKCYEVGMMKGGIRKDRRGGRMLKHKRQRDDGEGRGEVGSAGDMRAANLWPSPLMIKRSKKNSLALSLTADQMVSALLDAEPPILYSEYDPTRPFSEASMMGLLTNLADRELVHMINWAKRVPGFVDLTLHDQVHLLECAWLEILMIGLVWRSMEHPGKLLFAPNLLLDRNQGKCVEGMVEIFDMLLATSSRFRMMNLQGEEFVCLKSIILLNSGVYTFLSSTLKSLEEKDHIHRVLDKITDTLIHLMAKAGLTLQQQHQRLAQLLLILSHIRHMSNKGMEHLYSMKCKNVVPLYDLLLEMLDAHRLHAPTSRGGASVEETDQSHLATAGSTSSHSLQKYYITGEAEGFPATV
Activity calls are given as the source filed them.
measurement.kind: IC50

Consider the worked cases shown below.
1. O=C1CC(c2ccc(F)cc2)Cc2nc(NCC3CCCO3)ncc21 (centres undefined) = > 50 µM (not active)
2. CCC(C)n1nc(O)cc1N (centres undefined) = > 50 µM (not active)

So, `Cc1ccc(-c2nnc3n2N=C(c2ccc(Br)cc2)CS3)cc1` ? Its IC50 was 42.3 µM (not active)

So, `Cc1ccc(-c2csc(NC(=O)c3ccno3)n2)cc1` ? Its IC50 was 7.19 µM (active)
